system: neutrophil influx (myeloperoxidase, MPO); assay: Murine arachidonic acid-induced inflammation model: neutrophil influx in ear (myeloperoxidase activity); type: in vivo, female Balb/c mice; settings: Mus musculus, 30 mg/kg oral gavage 60 min before topical arachidonic acid to ear, female Balb/c mice, ear biopsies after 3 h, read-out: % Inh. MPO
Counter-ions that a name gives are not always drawn.
Quick rule: inhibition in vivo at 30 mg/kg of at least 80% means YES, below that means NO.

See these solved cases before continuing.
| molecule | group |
| --- | --- |
| O=C(O)CCN(CCc1ccc(OCCc2ccccc2)cc1)C1CC1 [Example 35, trifluoroacetic acid salt] | YES |
| O=C(O)C1CCN(Cc2ccc(OCCc3ccccc3)cc2)CC1 | YES |

Exercise: Assess whether reported inhibition in vivo at 30 mg/kg for O=C1CCCN1C1CCN(Cc2ccc(OCCc3ccccc3)cc2)CC1 sits at 80% or higher.
Solution: NO

Exercise: Assess whether reported inhibition in vivo at 30 mg/kg for O=C(O)C1CCN(CCOc2ccc(OCCCc3ccccc3)cc2)CC1 sits at 80% or higher.
Solution: NO

Exercise: Assess whether reported inhibition in vivo at 30 mg/kg for O=C(O)C1CCN(CCc2ccc(OCCc3ccccc3)cc2)CC1 sits at 80% or higher.
Solution: NO

Exercise: Assess whether reported inhibition in vivo at 30 mg/kg for O=C(O)CCN(CCc1ccc(OCCc2ccccc2)cc1)C1CCCCC1 sits at 80% or higher.
Solution: NO

----------
target: recombinant human LTA4 hydrolase (rhLTA4H) (Homo sapiens); construct: made in house; host or cells: Spodoptera frugiperda (Sf-9) cells, baculovirus (pFastBac1); assay: Recombinant human LTA4 hydrolase assay for LTA4 hydrolase inhibitor activity; type: biochemical; conditions: recombinant human LTA4H, LTB4 quantified by enzyme-linked immunoassay; average of one to three determinations; read-out: IC50
Provide the reported pIC50 of each item.
Answers are plain numbers, as −log10 of the molar value.

Items follow; give pIC50 for each.
1. O=C(Cc1ccc(OCCN2CCC(O)(c3ccccc3)CC2)cc1)Nc1ccccc1O [Example 13]
2. c1ccc(CCOc2ccc(OCCN3CCCCC3)cc2)cc1 [Example 67]
3. OC1CCCN(Cc2ccc(OCCCc3ccccc3)cc2)C1 (centres unmarked) [Example 109]
4. NC(=O)C1CCN(Cc2ccc(OCCc3ccccc3)cc2)CC1 [Example 101]
5. O=C(O)C1CCCN(C2CCN(CCc3ccc(OCCc4ccccc4)cc3)CC2)C1 (centres unmarked) [Example 19]

Solution:
8.00
7.64
7.64
7.55
6.65

----------
target: recombinant human LTA4 hydrolase (rhLTA4H) (Homo sapiens, UniProt P09960); construct: made in house; host or cells: Spodoptera frugiperda (Sf-9) cells, baculovirus (pFastBac1); experiment: Recombinant human LTA4 hydrolase assay for LTA4 hydrolase inhibitor activity; assay type: biochemical; conditions: recombinant human LTA4H, LTB4 quantified by enzyme-linked immunoassay; average of one to three determinations; read-out: IC50
Sequence (P09960 whole entry): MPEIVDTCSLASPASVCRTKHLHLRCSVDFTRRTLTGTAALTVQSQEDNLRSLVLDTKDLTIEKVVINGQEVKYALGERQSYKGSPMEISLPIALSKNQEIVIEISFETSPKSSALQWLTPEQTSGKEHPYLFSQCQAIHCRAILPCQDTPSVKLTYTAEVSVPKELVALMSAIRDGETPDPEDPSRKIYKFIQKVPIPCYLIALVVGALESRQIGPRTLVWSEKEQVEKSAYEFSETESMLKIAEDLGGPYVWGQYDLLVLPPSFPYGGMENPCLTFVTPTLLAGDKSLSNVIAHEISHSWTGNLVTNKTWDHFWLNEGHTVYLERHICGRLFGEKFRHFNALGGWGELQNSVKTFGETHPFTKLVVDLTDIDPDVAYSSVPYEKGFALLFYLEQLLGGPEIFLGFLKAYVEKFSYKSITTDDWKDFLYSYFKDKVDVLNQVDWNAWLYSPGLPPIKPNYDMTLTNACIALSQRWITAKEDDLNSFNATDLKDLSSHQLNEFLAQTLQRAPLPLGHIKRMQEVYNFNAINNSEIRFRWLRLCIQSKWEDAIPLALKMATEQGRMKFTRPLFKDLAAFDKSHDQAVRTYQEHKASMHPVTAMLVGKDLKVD
recordedMetric: pIC50
One number for each entry, as −log10 of the molar value.

Items follow; give pIC50 for each.
1. NC1CCN(Cc2ccc(OCCCc3ccccc3)cc2)CC1
2. CCOC(=O)C1CCCCN1C1CCN(CCc2ccc(OCCc3ccccc3)cc2)CC1 (stereo not shown)
3. O=C(O)C1CCN(Cc2ccc(OCCCc3ccccc3)cc2)CC1
4. O=C(Nc1ccccc1)OCc1ccc(OCCN2CCCCC2)cc1

Solution:
1: 7.40; 2: 7.06; 3: 8.40; 4: 6.45

Items follow; give pIC50 for each.
1. O=C(Nc1ccsc1)Oc1ccc(OCCN2CCCCC2)cc1
2. O=C(Nc1ccccc1F)Oc1ccc(OCCN2CCCCC2)cc1
3. O=C(Nc1ccccc1)Oc1ccc(OCCN2CCC(O)(c3ccc(Cl)c(C(F)(F)F)c3)CC2)cc1
4. c1ccc(CCOc2ccc(CN3CCCCC3)cc2)cc1

Solution:
1. 8.52
2. 8.15
3. 8.15
4. 7.44

Items follow; give pIC50 for each.
1. c1ccc(CCOc2ccc(CN3CCC(c4nnn[nH]4)CC3)cc2)cc1
2. O=C(Nc1ccccc1)Oc1ccc(OCCCN2CCC(O)(c3ccccc3)CC2)cc1
3. O=C(O)C1CCN(Cc2ccc(OCCc3ccccc3)nc2)CC1
4. c1ccc(CCCCOc2ccc(CN3CCCCC3)cc2)cc1

Solution:
7.21
9.00
6.60
6.78
